system: Mycobacterium tuberculosis; test: Antitubercular activity against Mycobacterium tuberculosis H37Rv ATCC 27294 after 5 to 8 days by microplate alamar blue assay; format: functional

test smiles	MIC
O=C1Nc2c(ccc(Cl)c2Cl)C(=O)/C1=N/Nc1cccc([N+](=O)[O-])c1	> 6.25 µg/mL
O=C1Nc2ccc(Cl)cc2C(=O)/C1=N/Nc1ccccc1[N+](=O)[O-]	< 6.25 µg/mL
COc1ccc(N/N=C2\C(=O)Nc3c(Cl)ccc(Cl)c3C2=O)cc1	> 6.25 µg/mL
CN1C(=O)/C(=N\Nc2ccc([N+](=O)[O-])cc2)C(=O)c2ccccc21	> 6.25 µg/mL
O=C1Nc2ccc(Cl)cc2C(=O)/C1=N/Nc1ccc([N+](=O)[O-])cc1	< 6.25 µg/mL
